# System: UO-31
# Measurement Description: NCI tumour cell line growth inhibition, 48 h
Active and inactive are the calls of the source. Cut-off read from the data, not from the text of the source: active = GI50 up to about 1.1 µM and inactive = higher.
Outcome codes: yes = active, no = inactive

>>> discrete_label("CN(C)c1ccc(-c2[nH]c(=O)c3ccccc3[n+]2C)cc1")
"no"
>>> discrete_label("CCOC(=O)CCCSCCCC(=O)CCCSCCCC(=O)OCC")
"no"
>>> discrete_label("Cc1cc(C(=O)CSC(=S)SC(C)(C)C)ccc1Cl")
"no"
>>> discrete_label("O=c1[nH]nc(-c2cccc([N+](=O)[O-])c2)[nH]1")
"no"
>>> discrete_label("Oc1cc(-c2cccc(Cl)c2)nc2ncccc12")
"no"
>>> discrete_label("Clc1ccc(NCNC2Nc3ccccc3N2)cc1Cl")
"no"
>>> discrete_label("S=C(Nc1cccc(C2(N3CCCCC3)CCCCC2)c1)Nc1cccc(C2(N3CCCCC3)CCCCC2)c1")
"no"
>>> discrete_label("CN(C(=O)C12C3C4C1C1C2C3C41C(=O)C(C)(C)C)C(C)(C)C (stereo not given)")
"no"
>>> discrete_label("O=S(O)c1cc(Cl)cc(Cl)c1O")
"no"
>>> discrete_label("CSc1nn(C)cc2nc(C)nc1-2")
"no"
>>> discrete_label("CC(C)c1ccc2c(c1)/C(=C1/Nc3ccccc3/C1=N/O)C(=O)N2")
"no"
>>> discrete_label("NCCCCNC1(c2cc3ccccc3s2)CCCCC1")
"no"
>>> discrete_label("CC(C)(C)c1nc2c(o1)C(=O)c1ccccc1C2=O")
"no"
>>> discrete_label("COC(=O)C12C3C4C1C1C2C3C41C(=O)OC(C)(C)C (stereo not given)")
"no"
>>> discrete_label("O=C(c1ccc(O)c([N+](=O)[O-])c1)c1ccc(O)c([N+](=O)[O-])c1")
"no"
>>> discrete_label("COc1cc(C2C3=C(COC3=O)Oc3cc4c(cc32)OCO4)cc(OC)c1O (stereo not given)")
"yes"
>>> discrete_label("N=C(N)N/N=C/c1c(-c2ccc(Cl)cc2)nc2sccn12")
"no"
>>> discrete_label("C[Si](C)(C)C#CCO[Si](C)(C)C")
"no"
>>> discrete_label("Clc1ccc(OCCSCCCCCCCCCCSCCOc2ccc(Cl)cc2)cc1")
"no"
>>> discrete_label("COC(=O)CCC1CCc2c(OC)ccc(OC)c2C1=O (stereo not given)")
"no"
>>> discrete_label("Clc1ccc2c(NCCCC/N=C/c3ccccc3)ccnc2c1")
"no"
>>> discrete_label("CN(C)C(=S)OC(Cn1cncn1)c1ccc(Cl)cc1Cl (stereo not given)")
"no"
>>> discrete_label("CC(C)Cc1cnc(CC(C)C)c(=O)[nH]1")
"no"
>>> discrete_label("O=C1CC(Br)c2c(Cl)sc(Cl)c21 (stereo not given)")
"no"
>>> discrete_label("Nc1ccc(Sc2c3ccccc3nc3ccccc23)cc1")
"no"

Recorded values, source ChEMBL document CHEMBL1201862.
